# System: HCC1937
# Experiment Notes: normalised viability (% of control), CellTiter-Blue; higher = more viable cells (about 100 = DMSO control)
# Condition Info: 100 nM; incubation time: 72 h

| Molecule Smiles | normalised viability / % |
| --- | --- |
| Cc1c(CN2CCN(C(=O)[C@H](C)O)CC2)sc2c(N3CCOCC3)nc(-c3cnc(N)nc3)nc12 | 76.7 |
| CCC/C=C/C=C/C(=O)O[C@H]1/C(=C/C(=O)OC)C[C@H]2C[C@H]([C@@H](C)O)OC(=O)C[C@H](O)C[C@@H]3C[C@H](OC(C)=O)C(C)(C)[C@](O)(C[C@@H]4C/C(=C/C(=O)OC)C[C@H](/C=C/C(C)(C)[C@]1(O)O2)O4)O3 | 103 |
| Cc1ccc(Nc2nccc(N(C)c3ccc4c(C)n(C)nc4c3)n2)cc1S(N)(=O)=O | 94 |
| CO[C@@H](C(=O)N1Cc2[nH]nc(NC(=O)c3ccc(N4CCN(C)CC4)cc3)c2C1)c1ccccc1 | 99.9 |

---

# Tested on: HDQ-P1
# Experiment Notes: normalised viability (% of control), CellTiter-Blue; higher = more viable cells (about 100 = DMSO control)
# Condition Info: 30 nM; incubation time: 72 h
Reported Endpoint: normalised viability (%)

| Compound | Reported Endpoint | Unit Text | Obs Value |
| --- | --- | --- | --- |
| Cc1ccc(Nc2nccc(N(C)c3ccc4c(C)n(C)nc4c3)n2)cc1S(N)(=O)=O [Pazopanib] | normalised viability | % | 103 |
| CS(=O)(=O)N1CCN(Cc2cc3nc(-c4cccc5[nH]ncc45)nc(N4CCOCC4)c3s2)CC1 [GDC-0941] | normalised viability | % | 93.8 |
| COc1ccc(-c2cc3c(C)nc(N)nc3n([C@H]3CC[C@H](OCCO)CC3)c2=O)cn1 | normalised viability | % | 81.6 |
| O=C(CCBr)N1CCN(C(=O)CCBr)CC1 [Pipobroman] | normalised viability | % | 83.8 |

---

# System: HCC1143
# Condition Info: 72 h
Each entry below carries its recorded EC50, CellTiter-Glo.
Reported Endpoint: EC50, CellTiter-Glo (nM)

| Compound | Reported Endpoint | Unit Text | Obs Value |
| --- | --- | --- | --- |
| Cc1nc(Nc2ncc(C(=O)Nc3c(C)cccc3Cl)s2)cc(N2CCN(CCO)CC2)n1 [Dasatinib] | EC50, CellTiter-Glo | nM | 29.5 |
| Cc1c(CN2CCN(C(=O)[C@H](C)O)CC2)sc2c(N3CCOCC3)nc(-c3cnc(N)nc3)nc12 [GDC-0980] | EC50, CellTiter-Glo | nM | 591 |
| CO[C@@H](C(=O)N1Cc2[nH]nc(NC(=O)c3ccc(N4CCN(C)CC4)cc3)c2C1)c1ccccc1 [Danusertib] | EC50, CellTiter-Glo | nM | 8380 |
| Cn1cc(CNCC2CCN(c3ncc(C(=O)NO)cn3)CC2)c2ccccc21 [Quisinostat] | EC50, CellTiter-Glo | nM | 21.5 |

---

Recorded normalised viability for the following compounds
# System: HDQ-P1
# Experiment Notes: normalised viability (% of control), CellTiter-Blue; higher = more viable cells (100 = DMSO, 0 = benzethonium chloride kill control)
# Condition Info: 1 nM; incubation time: 72 h
Reported Endpoint: normalised viability (%)

| Molecule Smiles | Unit Text | Obs Value |
| --- | --- | --- |
| Cc1c(CN2CCN(C(=O)[C@H](C)O)CC2)sc2c(N3CCOCC3)nc(-c3cnc(N)nc3)nc12 | % | 95.9 |
| O=C(Nc1c[nH]nc1-c1nc2ccc(CN3CCOCC3)cc2[nH]1)NC1CC1 | % | 103 |
| CS(=O)(=O)N1CCN(Cc2cc3nc(-c4cccc5[nH]ncc45)nc(N4CCOCC4)c3s2)CC1 | % | 109 |
| COc1ccc(-c2cc3c(C)nc(N)nc3n([C@H]3CC[C@H](OCCO)CC3)c2=O)cn1 | % | 75.8 |

---

Form field: drug sensitivity score (one value per entry).
# System: BT-474
# Experiment Notes: drug sensitivity score (DSS), CellTox Green (DSS (AUC-based score)); higher = stronger drug effect (viability inhibition or cytotoxicity); extreme values may be limits of the assay
# Condition Info: incubation time: 72 h
Reported Endpoint: drug sensitivity score

| Molecule | Obs Value |
| --- | --- |
| CC(C)N(CCCNC(=O)Nc1ccc(C(C)(C)C)cc1)C[C@H]1O[C@@H](n2cc(Br)c3c(N)ncnc32)[C@H](O)[C@@H]1O [SGC0946] | 0 |
| O=C(Nc1c[nH]nc1-c1nc2ccc(CN3CCOCC3)cc2[nH]1)NC1CC1 [AT9283] | 0 |
| CO[C@@H](C(=O)N1Cc2[nH]nc(NC(=O)c3ccc(N4CCN(C)CC4)cc3)c2C1)c1ccccc1 [Danusertib] | 0 |
| Cn1cc(CNCC2CCN(c3ncc(C(=O)NO)cn3)CC2)c2ccccc21 [Quisinostat] | 11 |

---

drug sensitivity score by entry:
# Tested on: MDA-MB-468
# Experiment Notes: drug sensitivity score (DSS), CellTiter-Blue viability (DSS (AUC-based score)); higher = stronger viability inhibition; extreme values may be limits of the assay
# Condition Info: incubation time: 72 h
Reported Endpoint: drug sensitivity score

| Compound | Obs Value |
| --- | --- |
| Cc1cccc(-c2nn3c(c2-c2ccnc4ccc(C(N)=O)cc24)CCC3)n1 | 0 |
| Nc1cccc2c1CN(C1CCC(=O)NC1=O)C2=O (stereo not given) [Lenalidomide] | 0 |
| COc1ccc(-c2cc3c(C)nc(N)nc3n([C@H]3CC[C@H](OCCO)CC3)c2=O)cn1 | 17.2 |
| O=S(=O)(c1cccc2cnccc12)N1CCCNCC1 [Fasudil] | 0 |
| COc1nc(N)nc2c1ncn2[C@@H]1O[C@H](CO)[C@@H](O)[C@@H]1O [Nelarabine] | 0 |
| C[C@]12C=CC(=O)C=C1CC[C@@H]1[C@@H]2[C@@H](O)C[C@@]2(C)[C@H]1CC[C@]2(O)C(=O)CO [Prednisolone] | 0 |
| Nc1nc(=O)c2c([nH]1)NCC(CNc1ccc(C(=O)N[C@@H](CCC(=O)O)C(=O)O)cc1)N2C=O (mixture of isomers) [Folinic acid] | 0 |
| O=C(CCBr)N1CCN(C(=O)CCBr)CC1 [Pipobroman] | 0 |
| CO[C@@H](C(=O)N1Cc2[nH]nc(NC(=O)c3ccc(N4CCN(C)CC4)cc3)c2C1)c1ccccc1 [Danusertib] | 15.5 |
| O=C(Nc1c[nH]nc1-c1nc2ccc(CN3CCOCC3)cc2[nH]1)NC1CC1 [AT9283] | 22.4 |

---

# System: CAL-85-1
# Experiment Notes: drug sensitivity score (DSS), CellTiter-Glo (DSS (AUC-based score)); higher = stronger drug effect (viability inhibition or cytotoxicity); extreme values may be limits of the assay
# Condition Info: incubation time: 72 h
Reported Endpoint: drug sensitivity score

| Molecule | System Name | Obs Value |
| --- | --- | --- |
| O=C(Nc1c[nH]nc1-c1nc2ccc(CN3CCOCC3)cc2[nH]1)NC1CC1 | CAL-85-1 | 0 |
| Nc1ccccc1NC(=O)c1ccc(CNc2nccc(-c3cccnc3)n2)cc1 | CAL-85-1 | 6.32 |
| CCN(CC)CCNC(=O)c1c(C)[nH]c(/C=C2\C(=O)Nc3ccc(F)cc32)c1C | CAL-85-1 | 0 |
| Cn1cc(CNCC2CCN(c3ncc(C(=O)NO)cn3)CC2)c2ccccc21 | CAL-85-1 | 16.4 |
| O=S(=O)(c1cccc2cnccc12)N1CCCNCC1 | CAL-85-1 | 0 |
| Nc1cccc2c1CN(C1CCC(=O)NC1=O)C2=O (stereo unspecified) [Lenalidomide] | CAL-85-1 | 0 |

---

Reported drug sensitivity score values for the following molecules.
# System: BT-549
# Experiment Notes: drug sensitivity score (DSS), CellTiter-Blue viability (DSS (AUC-based score)); higher = stronger viability inhibition; extreme values may be limits of the assay
# Condition Info: incubation time: 72 h
Reported Endpoint: drug sensitivity score

| Molecule | Reported Endpoint | Obs Value |
| --- | --- | --- |
| COc1ccc(-c2cc3c(C)nc(N)nc3n([C@H]3CC[C@H](OCCO)CC3)c2=O)cn1 | drug sensitivity score | 19.1 |
| Cn1cc(CNCC2CCN(c3ncc(C(=O)NO)cn3)CC2)c2ccccc21 | drug sensitivity score | 8.2 |
| O=C(NC[C@H](O)CO)c1ccncc1Nc1ccc(I)cc1F | drug sensitivity score | 0 |
| O=S(=O)(c1cccc2cnccc12)N1CCCNCC1 [Fasudil] | drug sensitivity score | 0 |

---

normalised response for assorted compounds
# System: Hs578T
# Experiment Notes: normalised response (% of control), CellTiter-Glo; higher = more viable cells (100 = DMSO, 0 = benzethonium chloride kill control)
# Condition Info: incubation time: 72 h
Reported Endpoint: normalised response

| Compound | System Name | Obs Value |
| --- | --- | --- |
| CC(C)N(CCCNC(=O)Nc1ccc(C(C)(C)C)cc1)C[C@H]1O[C@@H](n2cc(Br)c3c(N)ncnc32)[C@H](O)[C@@H]1O [SGC0946] (10 nM) | Hs578T | 98.1% |
| O=S(=O)(c1cccc2cnccc12)N1CCCNCC1 [Fasudil] (50 nM) | Hs578T | 94.9% |
| COc1ccc(-c2cc3c(C)nc(N)nc3n([C@H]3CC[C@H](OCCO)CC3)c2=O)cn1 (1000 nM) | Hs578T | 19.3% |
| Nc1ccccc1NC(=O)c1ccc(CNc2nccc(-c3cccnc3)n2)cc1 [Mocetinostat] (1 nM) | Hs578T | 99.3% |
| CCCCC/C=C/C=C1/C(=O)C=C[C@@H]1C/C=C\CCCC(=O)O [15D-PGJ2] (0.08 nM) | Hs578T | 99.6% |
| CNC(=O)c1cc(Oc2ccc(NC(=O)Nc3ccc(Cl)c(C(F)(F)F)c3)cc2)ccn1 [Sorafenib] (0.1 nM) | Hs578T | 98.3% |
| CC/C(=C(\c1ccc(O)cc1)c1ccc(OCCN(C)C)cc1)c1ccccc1 [4-hydroxytamoxifen] (1000 nM) | Hs578T | 107% |
| O=C(Nc1c[nH]nc1-c1nc2ccc(CN3CCOCC3)cc2[nH]1)NC1CC1 [AT9283] (100 nM) | Hs578T | 88.8% |
| Cc1c(Cn2c(C)nc3c(C(=O)O)cc(N4CCOCC4)cc32)cccc1C(F)(F)F (1000 nM) | Hs578T | 103% |
| O=C(CCBr)N1CCN(C(=O)CCBr)CC1 [Pipobroman] (1000 nM) | Hs578T | 108% |
| CO[C@@H](C(=O)N1Cc2[nH]nc(NC(=O)c3ccc(N4CCN(C)CC4)cc3)c2C1)c1ccccc1 [Danusertib] (1 nM) | Hs578T | 98% |
| Cc1c(CN2CCN(C(=O)[C@H](C)O)CC2)sc2c(N3CCOCC3)nc(-c3cnc(N)nc3)nc12 [GDC-0980] (1 nM) | Hs578T | 103% |
| c1cc(CN2CCCNCCNCCCNCC2)ccc1CN1CCCNCCNCCCNCC1 [Plerixafor] (1000 nM) | Hs578T | 91.4% |
| Nc1cccc2c1CN(C1CCC(=O)NC1=O)C2=O (stereo unspecified) [Lenalidomide] (10 nM) | Hs578T | 97.1% |
| c1cc(CN2CCCNCCNCCCNCC2)ccc1CN1CCCNCCNCCCNCC1 [Plerixafor] (10 nM) | Hs578T | 97.7% |
| CCN(CC)CCNC(=O)c1c(C)[nH]c(/C=C2\C(=O)Nc3ccc(F)cc32)c1C [Sunitinib] (100 nM) | Hs578T | 102% |
